system: OVCAR-8; assay: NCI tumour cell line growth inhibition, 48 h
Activity calls are given as the source filed them. Rule as the data show it: active = GI50 up to about 1.1 µM and inactive = higher.
Possible outcomes: active, inactive

CC1(C)COC2C(N(Cc3ccccc3)Cc3ccccc3)C(=O)N21 (centres undefined): inactive
COc1c(OC(C)=O)c(OC(C)=O)cc2c1-c1ccc(OC)c(=O)cc1C(NC(C)=O)CC2 (centres undefined): active
COC(CNC(=O)CNC(=O)c1ccc(C(F)(F)F)cc1)OC: inactive
O=Cc1[nH]c(=O)[nH]c(=O)c1CCl: inactive
Cn1c(N/N=C/c2ccccc2)nc(-c2ccc3c(c2)OCO3)c(C#N)c1=O: inactive
COc1nc(NC2OC(COC(C)=O)C(OC(C)=O)C(OC(C)=O)C2OC(C)=O)c(/N=C/C=N/c2c(NC3OC(COC(C)=O)C(OC(C)=O)C(OC(C)=O)C3OC(C)=O)nc(OC)[nH]c2=O)c(=O)[nH]1 (centres undefined): inactive
O=[N+]([O-])c1ccc(OP(=O)(O)OCC2OC(CP(=O)(O)O)C(O)C2O)cc1 (centres undefined): inactive
COc1cc2c(cc1OC)C1CCc3ccccc3CN1CC2 (centres undefined): inactive
C=C1CC(C)(COc2ccc3c(C)cc(=O)oc3c2)OC1=O (centres undefined): inactive

* * *

test system: MDA-N; experiment: NCI tumour cell line growth inhibition, 48 h
The source made the active and inactive calls. Rule as the data show it: active = GI50 up to about 1.1 µM and inactive = higher.
Each entry below carries its recorded GI50.
observationType: GI50

Cc1c2c(c(C)c3c[n+](C)ccc13)Oc1ccccc1O2: 18.6 µM (inactive)
Cc1cc2occ(S(=O)(=O)NC(=O)Nc3ccc(Cl)cc3)c(=O)c2c(=O)o1: > 100 µM (inactive)
O=c1[nH]c(=O)n(C2CC(O)C(CO)O2)cc1OCc1ccccc1 (stereo not given): > 100 µM (inactive)
CNC(=O)C1(N)c2ccccc2C=Cc2ccccc21: > 100 µM (inactive)
CC(=O)OC(C)C1C2=C(C(=O)CC1(C)O)C(=O)c1c(ccc(-c3ccc4c(c3O)C(=O)C3=C(C4=O)C(C(C)OC(C)=O)C(C)(O)CC3=O)c1O)C2=O (stereo not given): 3.15 µM (inactive)

* * *

tested on: MDA-MB-435; assay: NCI tumour cell line growth inhibition, 48 h
The source made the active and inactive calls. No stated cut-off is given here; in the data, active = GI50 up to about 1.1 µM and inactive = higher.
Possible outcomes: active, inactive

Oc1cc(-c2cccc(OCc3ccccc3)c2)nc2cc3c(cc12)OCO3: active
CC1(CNCc2ccccc2)CC(CCc2ccccc2)N(C(=O)c2ccc([N+](=O)[O-])cc2)C1Cc1ccc(O)cc1 (stereo not given): inactive
c1ccc(CSC(SCc2ccccc2)c2cccc3ccccc23)cc1: inactive
Nc1nc(Nc2ccc(Cl)cc2)sc1C(=O)c1cccs1: inactive
FC(F)(F)C(C1=NC(C(F)(F)F)(C(F)(F)F)N=C(N2CCOCC2)O1)C(F)(F)F: inactive
O=CC(O)C(O)C(O)C1CNC(=S)O1 (stereo not given): inactive
COP(=O)(OC)[C@@](O)(c1ccccc1)[C@@H](O)[C@H](O)c1ccccc1: inactive
COc1ccc2c(c1)CCc1c-2n(CCN2CCCCC2)c2ccc(OC)cc12: inactive
CC1(C)CCCCCC(C)(CCCCCCCCCCCO)C1=O (stereo not given): inactive
COC(CNC(=O)CNC(=O)c1ccc(C(F)(F)F)cc1)OC: inactive

* * *

system: MDA-MB-435; assay: NCI tumour cell line growth inhibition, 48 h
Active and inactive are the calls of the source. Rule as the data show it: active = GI50 up to about 1.1 µM and inactive = higher.
Possible outcomes: active, inactive

C[C@]12CCC(=O)C=C1CC[C@@H]1[C@@H]2CC[C@]2(C)C(=O)/C(=C/c3ccc([N+](=O)[O-])cc3)C[C@@H]12: inactive
CC1(C)CCc2c(ccc(C(=O)/C=C/c3ccc(O)cc3)c2O)O1 [DORSMANNIN A]: inactive
CN(C)c1ccc(C2SCC(=O)N2NS(=O)(=O)c2cccc(C(=O)O)c2)cc1 (stereo unspecified): inactive
O=C(N/N=C(COc1ccccc1)\N=C\c1cccnc1)c1ccncc1: inactive
CCCCCCCCCCCCCCCCCCOCC(COCCOCC[N+]1(CCCCCC(=O)[O-])CCCC1)Oc1ncccn1 (stereo unspecified): inactive
O=C(/C=C/c1ccc2c(c1)OCO2)c1ccccc(=O)c1O: inactive
CCCNCC(O)CNc1ccc(NCC(O)CNCCC)c2c1C(=O)c1ccccc1C2=O (stereo unspecified): inactive
O=C(CCCn1ccnc1[N+](=O)[O-])NCCn1ccnc1: inactive
S=C(c1c[nH]c2ccccc12)N1CCN(c2ccccc2)CC1: inactive
Nc1ncnc2c1ncn2[C@@H]1C[C@H](NO)[C@@H](O)[C@H]1O: inactive
Cc1cc(-c2nc3ccc(F)cc3s2)ccc1N: inactive
N#Cc1c(C#N)c(-c2ccco2)n(-c2ccccc2)c1N: inactive
COC(=O)c1sc(=S)sc1SCc1ccc(CSc2sc(=S)sc2C(=O)OC)cc1: inactive
COC1/C=C/C(C)C(C(C)C(OC)C(C)CCC(=O)C(C)C(C/C=C/N(C)C=O)OC)OC(=O)/C=C/C=C(\C)CC(OC)CC2=CC(=O)O[C@H](C2)C(C)C(OC)CC(OC)/C=C/C(C)C(OC)C1 (stereo partly specified): active
CC1(C)CC2C=C(C=O)C3(C=O)CC3(C)C2C1 (stereo unspecified): inactive
C[C@@H]1C[C@H]2[C@@H]3CCC4=CC(=O)C=C[C@]4(C)[C@@]3(Cl)[C@@H](Cl)C[C@]2(C)[C@@]1(O)C(=O)COP(=O)(O)O: inactive
O=C1/C(=N/O)Cc2c(Br)ccc(Br)c21: inactive
CSc1ncnc2c1cnn2Cc1cn(COCCO)nn1: inactive
N#Cc1c(-c2ccccc2)cn(C(=O)c2ccccc2)c1N: inactive
C=C(C)CCC1CCCCC(CN(C)C)C1=O (stereo unspecified): inactive
CC(=O)Nc1ccc2cc3[nH]c4cc(NC(C)=O)ccc4c3nc2c1: inactive

The reported measurements were obtained from ChEMBL document CHEMBL1201862.
